# Test system: HEL92 cells
# measurement description: Growth inhibition, MTS assay, HEL92
# Format: cell-based, Human
# experimental parameters: 72 hours, MTS cell viability; read-out: HEL92 ED50
parameter measured: IC50 (µM)

• CC(C)n1c(N2CC[C@H](N)C2)nc2c([N+](=O)[O-])c(Br)c(Br)cc21 = 2.6
• CC(C)n1c(N2CC[C@@H](N)C2)nc2c([N+](=O)[O-])c(Br)c(F)cc21 = 8.9
• CC(C)n1c(N2CCC[C@H](N)C2)nc2c([N+](=O)[O-])c(Br)c(Br)cc21 = 2.4
• CC(C)n1c(NC2CCC(N)CC2)nc2c([N+](=O)[O-])c(Br)c(Br)cc21 (centres unmarked) = 6.0
• CCCn1c(N2CCNCC2)nc2c([N+](=O)[O-])c(Br)c(Br)cc21 = 2.2
• O=[N+]([O-])c1c(Br)c(Br)cc2c1nc(N[C@H]1CCNC1)n2CC1CC1 = 6.1
• CC(C)n1c(N[C@@H]2CCNC2)nc2c([N+](=O)[O-])c(Br)c(Br)cc21 = 7.6
• CC(C)n1c(N[C@@H]2CCCNC2)nc2c([N+](=O)[O-])c(Br)c(Br)cc21 [Example 1AS] = 5.4

---

# System: MV4-11 cells
# measurement description: Growth inhibition, MTS assay, MV4-11
# Assay type: cell-based, Human
# experimental parameters: 72 hours, MTS cell viability; read-out: MV4-11 ED50
parameter measured: IC50

• CC(C)n1c(N[C@@H]2CCNC2)nc2c([N+](=O)[O-])c(Br)c(Br)cc21 [Example 1BF] = 2000 nM
• CC(C)n1c(N2CCNC[C@H]2C)nc2c([N+](=O)[O-])c(Br)c(Br)cc21 [Example 1AX] = 100 nM
• O=[N+]([O-])c1c(Br)c(Br)cc2c1nc(N1CCNCC1)n2C1CCC1 [Example 1DG] = 200 nM
• CC(C)n1c(N2CC[C@@H](N)C2)nc2c([N+](=O)[O-])c(Br)c(Br)cc21 [Example 1AY] = 500 nM
• CC(C)n1c(N2CCC[C@H](N)C2)nc2c(C#N)c(Br)c(Br)cc21 [Example 1BV] = 5100 nM
• CC(C)n1c(N[C@@H]2CCCNC2)nc2c([N+](=O)[O-])c(Br)c(Br)cc21 [Example 1AS] = 600 nM
• Cl.NC1CCCN(c2nc3c([N+](=O)[O-])c(Br)c(Br)cc3n2CC2CC2)C1 (centres unmarked) [Example 1AV] = 1400 nM
• N[C@@H]1CCN(c2nc3c([N+](=O)[O-])c(Br)c(Br)cc3n2C2CCC2)C1 [Example 1DC] = 200 nM

---

Consider the following compounds and their measured inhibition at 1 µM readings.
# target under test: Pim-2 (Homo sapiens (Human))
# Sequence (Q9P1W9 whole entry): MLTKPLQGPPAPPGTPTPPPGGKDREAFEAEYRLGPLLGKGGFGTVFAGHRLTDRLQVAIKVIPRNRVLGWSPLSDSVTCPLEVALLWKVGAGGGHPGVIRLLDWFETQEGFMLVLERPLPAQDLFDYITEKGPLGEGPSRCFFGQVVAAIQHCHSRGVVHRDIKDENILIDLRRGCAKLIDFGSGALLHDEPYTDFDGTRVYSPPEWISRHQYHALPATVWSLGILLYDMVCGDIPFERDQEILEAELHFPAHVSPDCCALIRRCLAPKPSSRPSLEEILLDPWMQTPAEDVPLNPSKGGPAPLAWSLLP
# measurement description: ADP-Glo Kinase Assay, Pim-2
# Assay type: biochemical
# experimental parameters: 1 μM compound; read-out: Pim-2 % INH (1 μM)
parameter measured: inhibition at 1 µM (%)

• CCn1c(NCCCN)nc2c([N+](=O)[O-])c(Br)c(Br)cc21 = 28
• CC(C)n1c(C2CCNCC2)nc2c([N+](=O)[O-])c(Br)c(Br)cc21 [Example 26A] = 68
• CC(C)n1c(N2CCOC(CN)C2)nc2c([N+](=O)[O-])c(Br)c(Br)cc21 (stereo not shown) = 40
• CCCn1c(NCC(O)CN)nc2c([N+](=O)[O-])c(Br)c(Br)cc21 (stereo not shown) = 36

---

Consider the following molecules and their measured Pim-3 % INH (1 μM) readings.
# target under test: Pim-3 (Homo sapiens (Human), UniProt Q86V86)
# measurement description: ADP-Glo Kinase Assay, Pim-3
# Type: biochemical
# experimental parameters: 1 μM compound
parameter measured: Pim-3 % INH (1 μM) (%)

* CC(C)n1c(NC2CCNC2)nc2c(C#N)c(Br)c(Br)cc21 (centres unmarked) [Example 1BK] | 92
* Cl.NC1CCCN(c2nc3c([N+](=O)[O-])c(Br)c(Br)cc3n2CC2CC2)C1 (centres unmarked) | 91
* COCCn1c(N2CC[C@@H](N)C2)nc2c([N+](=O)[O-])c(Br)c(Br)cc21 | 56
* CC(C)n1c(N2CC[C@H](N)C2)nc2c([N+](=O)[O-])c(Br)c(Br)cc21 | 94
* NCCCNc1nc2c([N+](=O)[O-])c(Br)c(Br)cc2n1CC1CC1 | 87
* CC(C)n1c(N2CCC[C@H](N)C2)nc2c(C#N)c(Br)c(Br)cc21 | 91
* CC(C)n1c(NC2CCNC2)nc2c(C#N)c(Br)c(Br)cc21 (centres unmarked) [Example 1BH] | 60

---

Consider the following compounds and their measured inhibition at 1 µM readings.
# target under test: Pim-1 (Homo sapiens (Human))
# Sequence (P11309 whole entry): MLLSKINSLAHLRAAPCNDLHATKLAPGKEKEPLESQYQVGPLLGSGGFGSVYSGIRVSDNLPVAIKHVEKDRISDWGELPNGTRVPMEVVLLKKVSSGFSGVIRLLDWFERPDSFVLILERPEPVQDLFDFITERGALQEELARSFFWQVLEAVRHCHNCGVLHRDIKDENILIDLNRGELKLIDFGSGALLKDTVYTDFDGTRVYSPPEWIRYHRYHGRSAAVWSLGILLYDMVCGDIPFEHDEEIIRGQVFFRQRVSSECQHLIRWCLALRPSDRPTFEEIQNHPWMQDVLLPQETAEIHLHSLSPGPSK
# measurement description: ADP-Glo Kinase Assay, Pim-1
# Format: biochemical
# experimental parameters: 1 μM compound; read-out: Pim-1 % INH (1 μM)
Where a name gives a salt, the structure may show the parent alone.
parameter measured: inhibition at 1 µM

* CC(C)n1c(N2CCN[C@@H](C)C2)nc2c([N+](=O)[O-])c(Br)c(Br)cc21 [Example 22Z] | > 95%
* CC(C)Cn1c(NCC(O)CN)nc2c([N+](=O)[O-])c(Br)c(Br)cc21 (centres unmarked) | > 95%
* CC(C)n1c(NCC(O)CN)nc2c([N+](=O)[O-])c(Br)c(Br)cc21 (centres unmarked) | 89%
* Cc1c(Br)cc2c(nc(N3CCNCC3)n2C(C)C)c1[N+](=O)[O-] | 81%
* CCn1c(N2CCNC(C)(C)C2)nc2c([N+](=O)[O-])c(Br)c(Br)cc21 [Example 22W] | 80%
* CCn1c(N2CCNCC2)nc2c(C(F)(F)F)c(Br)c(Br)cc21 | > 95%
* CC(C)Cn1c(N2CCNCC2)nc2c([N+](=O)[O-])c(Br)c(Br)cc21 | > 95%
* COC1CN(c2nc3c([N+](=O)[O-])c(Br)c(Br)cc3n2C(C)C)CC1N (centres unmarked) | > 95%
* CC(C)n1c(N2CCC(N)CC2)nc2c(C#N)c(Br)c(Br)cc21 | > 95%
* CCn1c(N2CCNC[C@@H]2C)nc2c(C#N)c(Br)c(Br)cc21 | > 95%
* CCn1c(NCC(O)CN)nc2c([N+](=O)[O-])c(Br)c(Br)cc21 (centres unmarked) | 76%
* CC(C)n1c(N2CCNCC2)nc2c(C#N)c(Br)c(Br)cc21 | > 95%
* CC(C)n1c(N2CCOCC2)nc2c([N+](=O)[O-])c(Br)c(Br)cc21 [Example 22K] | > 95%
* CCn1c(NCC2CCCN2)nc2c([N+](=O)[O-])c(Br)c(Br)cc21 (centres unmarked) | 85%
* CC(C)n1c(N2CCNC(CO)C2)nc2c([N+](=O)[O-])c(Br)c(Br)cc21 (centres unmarked) [Example 22AD] | > 95%
* CCC(C)n1c(N2CCNCC2)nc2c([N+](=O)[O-])c(Br)c(Br)cc21 (centres unmarked) [Example 2I, hydrochloride] | > 95%
* CC[C@H]1CNCCN1c1nc2c([N+](=O)[O-])c(Br)c(Br)cc2n1C(C)C | > 95%
* CC(C)n1c(N2CCNCC2)nc2c([N+](=O)[O-])c(C(F)(F)F)c(Br)cc21 | 59%
* CC(C)n1c(N2CC(N)C2)nc2c([N+](=O)[O-])c(Br)c(Br)cc21 | > 95%
* CC(C)n1c(N2CCC[C@H](N)C2)nc2c(C#N)c(Br)c(Br)cc21 | > 95%

---

# System: HepG2 cells
# measurement description: Growth inhibition, MTS assay, HepG2
# Type: cell-based, Human
# experimental parameters: Homo sapiens, HepG2, 72 h, MTS cell viability, read-out: HepG2 ED50
pIC50: −log10 of the molar value. Structures can show the parent of a compound that is named as a salt.
parameter measured: pIC50

* CC(C)Cn1c(N2CCCC(N)C2)nc2c([N+](=O)[O-])c(Br)c(Br)cc21 (stereo not shown) [Example 1V] | 6.05
* CC(C)n1c(N2CCNCC2)nc2c([N+](=O)[O-])c(Br)c(Br)cc21 [Example 2A, hydrochloride] | 6.22
* CC(C)n1c(N2CCNCC2)nc2c([N+](=O)[O-])c(C(F)(F)F)c(Br)cc21 [Example 9B] | 5.57
* CCn1c(N2CCNC[C@@H]2C)nc2c(C#N)c(Br)c(Br)cc21 [Example 1DP] | 6.70
* CCn1c(NCCCN)nc2c([N+](=O)[O-])c(Br)c(Br)cc21 [Example 1C] | 5.39
* CCn1c(N2CCC(N)CC2)nc2c(C#N)c(Br)c(Br)cc21 [Example 1DS] | 6.22
* C#CCn1c(N2CCNCC2)nc2c([N+](=O)[O-])c(Br)c(Br)cc21 [Example 2B, hydrochloride] | 5.85
* CCn1c(NCCCN2CCCC2)nc2c([N+](=O)[O-])c(Br)c(Br)cc21 [Example 22P] | 5.57
* CCCn1c(N2CCCC(N)C2)nc2c([N+](=O)[O-])c(Br)c(Br)cc21 (stereo not shown) [Example 1U] | 5.82
* NCCCNc1nc2c([N+](=O)[O-])c(Br)c(Br)cc2[nH]1 [Example 1D] | 5.21
* NCCCNc1nc2c([N+](=O)[O-])c(Br)c(Br)cc2n1C1CCCC1 [Example 2H, hydrochloride] | 5.82
* COC(CN)CNc1nc2c(C#N)c(Br)c(Br)cc2n1C(C)C (stereo not shown) [Example 22AC] | 5.14
* CCn1c(NCC2CCCN2)nc2c([N+](=O)[O-])c(Br)c(Br)cc21 (stereo not shown) [Example 1AM] | 5.57
* CC(C)Cn1c(N2CCNCC2)nc2c([N+](=O)[O-])c(Br)c(Br)cc21 [Example 1N] | 5.77
* O=[N+]([O-])c1c(Br)c(Br)cc2c1nc(N1CCNCC1)n2CCO [Example 1DJ] | 5.68
* Cl.O=[N+]([O-])c1c(Br)c(Br)cc2c1nc(N1CCNCC1)n2C1CCCC1 [Example 2D, hydrochloride] | 6.15
* CCC(C)n1c(N2CCNCC2)nc2c([N+](=O)[O-])c(Br)c(Br)cc21 (stereo not shown) [Example 2I, hydrochloride] | 5.89
* O=[N+]([O-])c1c(Br)c(Br)cc2c1nc(N1CCNCC1)n2CC1CCC1 [Example 2F, hydrochloride] | 5.74
* CCn1c(NC2CCCCC2N)nc2c([N+](=O)[O-])c(Br)c(Br)cc21 (stereo not shown) [Example 22L] | 5.89
* CC(C)n1c(N2CCCC(N)C2)nc2c([N+](=O)[O-])c(Br)c(Br)cc21 (stereo not shown) [Example 1T] | 5.89
* CCn1c(N2CCNC(C)(C)C2)nc2c([N+](=O)[O-])c(Br)c(Br)cc21 [Example 22W] | 5.82
* CCn1c(N2CCCC2CN)nc2c([N+](=O)[O-])c(Br)c(Br)cc21 (stereo not shown) [Example 1Z] | 5.19
* CC(C)n1c(N2CC[C@@H](N)C2)nc2c(C#N)c(Br)c(Br)cc21 [Example 1BI] | 5.82
* COC(CN)CNc1nc2c([N+](=O)[O-])c(Br)c(Br)cc2n1C(C)C (stereo not shown) [Example 22AB] | 5.29
* CC(C)n1c(N2CCN[C@@H](C)C2)nc2c([N+](=O)[O-])c(Br)c(Br)cc21 [Example 22Z] | 5.80
* CC(C)n1c(NC2CCC(N)CC2)nc2c([N+](=O)[O-])c(Br)c(Br)cc21 (stereo not shown) [Example 1CQ] | 5.70
* CCn1c(NC2CCCNCC2)nc2c([N+](=O)[O-])c(Br)c(Br)cc21 (stereo not shown) [Example 1Q] | 5.96
* CC(C)n1c(NC2CCNC2)nc2c(C#N)c(Br)c(Br)cc21 (stereo not shown) [Example 1BH] | 5.25
* CCn1c(N2CCCN(C)CC2)nc2c([N+](=O)[O-])c(Br)c(Br)cc21 [Example 22M] | 5.30
* CC(C)n1c(N2CCC[C@H](N)C2)nc2c(C#N)c(Br)c(Br)cc21 [Example 1BJ] | 5.32
* CCn1c(N2CCNCC2)nc2c(C#N)c(Br)c(Br)cc21 [Example 8A] | 5.77
* C#CCn1c(NCCCN)nc2c([N+](=O)[O-])c(Br)c(Br)cc21 [Example 2G, hydrochloride] | 5.89
